Data origin, for the record: the PETadex activity labels (doi:10.1038/s41467-025-61599-z)

test: Proxy for plastic degradation [UPLC/UHPLC]; settings: pH 9; 40 °C
property: Proxy for plastic degradation (µM)
Please state the figure in µM; there is no need to write the unit.

Endpoint output: Proxy for plastic degradation of unnamed (protein) MALVTALALVTGVGTAPAFADEIGQAPTAANITGDGSFSTSSSAIFGQSGFGGGTAYYPNTAGKYPVVAFAPGFLSDWNALNWLGPRVASWGFVVVGVNTNTPFDFPDARGDQLLAALNWAVNSAPAAVRDKADGSRRGVSGWSMGGGGTLEALAKDTTGTVKAGVPLAPWHTNKTWSKVTEPVFIIGGQNDSVAAPASHAIPFYNSLGGPKSYLERAGADHFFPTKSNGTVSRAVVSFFKRHVSADTRFTPFLCGFSGLDVSNFRSNSC . Value?
759
